# PROTOCOL: NCI Yeast Anticancer Drug Screen. Data for the bub3 strain (AID 167)
# REPORTED CONDITIONS: S. cerevisiae bub3 mutant strain, at 50.0 µM, stronger effect = higher value
# Protocol: Growth inhibition of yeast strains with defined genetic alterations is measured as a screen for potential anti-cancer activity. Selected strains with alterations in DNA damage repair or cell cycle control were exposed to compounds and growth inhibition was measured relative to vehicle treated controls. The strain used in this assay is bub3
Compounds without any hit were thinned out: in the full panel of roughly 79,000, 15% have a hit. Where a SMILES comes first, the peptide text is derived from it. The star is where a group is joined. Boc = CC(C)(C)OC(=O)*; OcHex = C1CCC(O*)CC1
Assign y whenever growth inhibition does not fall below 10%; assign n whenever it does.

>>> assigned_class("C=C1C(=O)OC2CC(C)C3CC(OCCCl)OC(OCCCl)C3(C)CC12 (stereo unspecified)")
"n"
>>> assigned_class("Cc1cccc(CCSCCc2cccc(C)[n+]2[O-])[n+]1[O-]")
"n"
>>> assigned_class("CC(=O)OC1C(O[C@H]2CC[C@]34O[C@]35CC[C@]3(C)C(C6(C)CC[C@@H](C(C)(C)O)O6)[C@@H](O)CC3(C)[C@@H]5CC(OC3OC(CO)C(O)C(O)C3O)C4C2(C)C)OCC(O)C1O (stereo partly specified)")
"n"
>>> assigned_class("O=C(Oc1c(Cl)c(Cl)c(Cl)c(Cl)c1Cl)c1ccc([N+](=O)[O-])cc1")
"n"
>>> assigned_class("COc1cc(O)c(C(C)c2ccccc2)cc1N=O (stereo unspecified)")
"y"
>>> assigned_class("C=CCc1nc2c([nH]1)c(=O)n(C)c(=O)n2C")
"n"
>>> assigned_class("COC(=O)C1(C)CCCC2(C)C1CCC13OC(=O)C(C(C)C)(CC21)C3O (stereo unspecified)")
"n"
>>> assigned_class("CC1(Br)CC2=C(CC1(C)Br)C(=O)C(c1ccccc1)=C(c1ccccc1)C2=O (stereo unspecified)")
"y"
>>> assigned_class("O=c1[nH]c(=O)c2nc3cc(-c4ccc5nc6[nH]c(=O)[nH]c(=O)c6nc5c4)ccc3nc2[nH]1")
"n"
>>> assigned_class("CCOc1c(N=Nc2ccccc2Cl)c(-c2ccccc2)nn1C(N)=S")
"n"
>>> assigned_class("CC(=O)Nc1nnc(C)o1")
"y"
>>> assigned_class("O=c1[nH]cc(F)c(=O)n1-c1ccco1")
"y"
>>> assigned_class("Cc1cc(C)c2ccc(NC(=O)CCC(=O)O)nc2n1")
"n"
>>> assigned_class("CC(C)CC(NC(=O)OC(C)(C)C)C(=O)NC(CCC(=O)OC1CCCCC1)C(N)=O (stereo not drawn) (Boc-Leu-Glu(OcHex)-NH2; configuration not given here)")
"n"
>>> assigned_class("C/C(=C\\c1ccccc1)C(=O)c1c(C)cc(C)cc1C")
"n"
>>> assigned_class("CC(C)(CN1CCCCC1)C(=O)/C=C/c1ccc(Br)cc1")
"y"
>>> assigned_class("CC(C)(C)NC(=S)NC1CC2CC1C1Cc3ccccc3C21 (stereo unspecified)")
"n"
>>> assigned_class("O=C(O)c1cccc(C(=O)O)[n+]1[O-]")
"n"
>>> assigned_class("N#CSCc1cc(Cl)c(CSC#N)c(Cl)c1Cl")
"y"
>>> assigned_class("c1ccc2c(c1)nc1n2C2CCC(C2)N1 (stereo unspecified)")
"n"
>>> assigned_class("CCOC(=O)C(C#N)C1=CC(=O)C(=O)c2ccc(O)cc21 (stereo unspecified)")
"y"
